target: Focal adhesion kinase 1 (Homo sapiens); assay: small-molecule microarray binders of FAK, primary screen, biochemical, 635/667 nm fluorescence, BSA, DTT (AID 1130); conditions: PTK2 binding, 635 nm fluorescence, higher = more signal;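 also: composite of spot emission at 667 nm and signal to noise over triplicate slides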
# composite z-score annotations
Answer as a number with no unit attached.

Q: Which composite z-score value belongs to Cc1ccc(S[C@]2(C(=O)NCC(F)(F)F)CC(=O)N(Cc3ccccc3C(F)(F)F)[C@@H]2c2ccc(CO)cc2I)cc1 ?
Result: -0.604

* * *

experiment: S. cerevisiae RM11-1a growth modifiers, primary screen, strain RM11-1a, OD600, basal, 24 h (AID 1177); conditions: OD600, 24 h, higher = more signal, called active from +8 up or from −8 down;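 also: cultures grown under basal conditions with no added stressor; test concentration not given here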
measure: z-score
Response field accepts a number only; no unit should be typed.

Illustrative cases are given below, each with its answer.
[[record]]
molecule = "COC(=O)[C@@]1(Cc2ccc(OC)cc2)[C@H]2c3cc(C(=O)N4CCCC4)n(Cc4c(-c5ccccc5)noc4C)c3C[C@H]2CN1C(=O)c1ccccc1"
recorded_result = 1.18

[[record]]
molecule = "CCCCCCc1nc(C2CC2)cc2c1[Si](C(C)C)(C(C)C)O[C@H]2c1ccccc1"
recorded_result = -0.553


We next turn to a different molecule, shown below.
Q: I'd like to know its z-score. The molecule in question is C=CCC(OC(C)=O)[C@@H]1[C@@H](N(Cc2cccc3ccccc23)C(=O)c2cccc3ccccc23)c2cc(OCCCO)ccc2N1C(=O)c1ccc(-c2ccccc2)cc1 (stereo partly drawn)
Result: -0.56

* * *

target: Focal adhesion kinase 1 (Homo sapiens); assay: small-molecule microarray binders of FAK, primary screen, biochemical, 635/667 nm fluorescence, BSA, DTT (AID 1130); conditions: PTK2 binding, 635 nm fluorescence, higher = more signal;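 also: composite of spot emission at 667 nm and signal to noise over triplicate slides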
measure: composite z-score
Answer with the value's number alone.

Reference set, count: 3
[[record]]
molecule = "C=CCNC(=O)[C@H]1[C@@H]2C(=O)O[C@@H](c3ccccc3)[C@@H](c3ccccc3)N2[C@@H](c2ccc(O)cc2)[C@]12C(=O)Nc1ccc(C#CC3(O)CCCCCC3)cc12"
recorded_result = 0.201

[[record]]
molecule = "Cc1ccccc1C(O)C1C=CC2C(=O)N(C)C(=O)C2N1N(c1ccccc1)c1ccccc1 (centres undefined)"
recorded_result = -0.128

[[record]]
molecule = "COc1ccccc1CN1C(=O)c2ccccc2[C@](Cc2ccccc2I)(C(=O)NCC(F)(F)F)[C@@H]1c1ccc(CO)cc1"
recorded_result = 0.473


Alright, here's another molecule for you.
Q: Need composite z-score of COc1ccc([Si](C)(C)[C@@H]2[C@@H](CC(=O)N3Cc4ccccc4C[C@H]3CO)O[C@]3(C(=O)N(Cc4cccc(N5C(=O)c6cccc7cccc5c67)c4)c4ccccc43)[C@H]2C)cc1 , thanks.
Result: 0.434

* * *

target: Luciferin 4-monooxygenase (Photinus pyralis); assay: firefly luciferase enzyme inhibitors, primary screen, biochemical, luminescence, purified enzyme, 2006 set (AID 1141); settings: SteadyGlo luminescence, 30 min, higher = more signal, called active from +8 up or from −8 down;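 also: cell-free assay with purified firefly luciferase at 100 ng per well in PBS; test concentration not given here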
Some compounds, each annotated with its measured z-score.
Answer as a number with no unit attached.

[[record]]
compound = "Cc1cc(C)cc(N2C(=O)CSC2c2cccc([N+](=O)[O-])c2)c1 (stereo not drawn)"
recorded_result = -0.992

[[record]]
compound = "CC(C)C(CO)N1C(=O)[C@@H]2C3C(=O)OCCC/C=C\\[C@H]3OC23C=CCN(C(C)(C)C)C(=O)[C@@H]13 (stereo partly drawn)"
recorded_result = -0.197

[[record]]
compound = "O=C1N(Cc2ccccc2)c2ccccc2[C@@H]2OC(c3ccc(OCCCO)cc3)=N[C@]12Cc1ccccc1"
recorded_result = -3.86

[[record]]
compound = "[N-]=[N+]=NCc1ccccc1C[C@@]1(C(=O)N2CCCCC2)N=C(c2ccc(OCCCO)cc2)O[C@@H]1c1ccccc1"
recorded_result = -0.362

[[record]]
compound = "Cc1ccc(S[C@]2(C(=O)NCCCN(C)C)CC(=O)N(C3CCCCC3)[C@@H]2c2ccc(CO)cc2)cc1"
recorded_result = 0.437


Q: Recorded z-score of C=CCNC(=O)[C@H]1[C@@H]2C(=O)O[C@@H](c3ccccc3)[C@@H](c3ccccc3)N2[C@@H](c2ccc(O)cc2)[C@]12C(=O)Nc1ccc(C#CC3(O)CCCCCC3)cc12 , please.
Result: 0.452

Q: Requested read-out: z-score. Entry: C=CCNC(=O)[C@@H]1[C@H]2C(=O)O[C@H](c3ccccc3)[C@H](c3ccccc3)N2[C@H](c2ccc(O)cc2)[C@@]12C(=O)N(C(=O)OCCOC)c1ccc(C#CC3(O)CCCCCC3)cc12
Result: 0.779

Q: I'd like to know its z-score. The compound in question is [N-]=[N+]=Nc1ccccc1C[C@]1(C(=O)N2CCOCC2)N=C(c2ccc(OCCCO)cc2)O[C@H]1c1ccccc1
Result: -2.31

Q: What value of measured z-score is listed for [N-]=[N+]=NCc1ccccc1[C@@H]1OC(c2ccc(OCCCO)cc2)=N[C@]1(CCS(=O)(=O)c1ccccc1)C(=O)NCC(O)CO (stereo partly drawn) ?
Result: -1.93

Q: Endpoint output: z-score of O=C(CS)NCCCCCCNC(=O)[C@H]1C[C@H]2C(=O)N[C@@H](Cc3ccccc3)C(=O)N2[C@H]1c1ccc(O)cc1 . Value?
Result: -1.17

Q: Would you mind telling me what z-score value was observed for N#Cc1ccc(NN2C(C(O)c3ccc(F)cc3)C=CC3C(=O)N(c4ccccc4)C(=O)C32)cc1 (stereo not drawn) ?
Result: 0.646

* * *

experiment: basal MM1S mitochondrial membrane potential changes, profiling panel, cell-based, JC-1 fluorescence, 24 h, 100 nL compound (AID 1170); conditions: higher = more signal; also: test concentration not given here
z-score reference
Write the number on its own, no unit after it.

[[record]]
molecule = "COC(=O)CCCCCCC(=O)Nc1ccc(NC(=O)CCCC[P+](c2ccccc2)(c2ccccc2)c2ccccc2)cc1"
recorded_result = -1.46

[[record]]
molecule = "COCCCNC(=O)[C@@]1(Cc2ccccc2CN=[N+]=[N-])N=C(c2ccc(OCCCO)cc2)O[C@H]1c1ccccc1"
recorded_result = -0.69

[[record]]
molecule = "COc1ccc(C(O)C2C=CC3C(=O)N(c4ccccc4)C(=O)C3N2Nc2ccc([N+](=O)[O-])cc2)cc1 (stereo unspecified)"
recorded_result = -0.909


Q: Returns the measured z-score for the input molecule. Input: COC(=O)C1=CC(CCCO)=CC(C2CC2)N(C)C=C1C(=O)OC (stereo unspecified)
Result: -1.27

Q: Item under review: O=C1NC(=O)C2C1C=CC(C(O)c1ccco1)N2Nc1ccccn1 (stereo unspecified) . Reported z-score?
Result: -0.154

Q: # get_value(readout='z-score', item= CN1C(=O)C2C=CC(C(O)c3cccc(O)c3)N(Nc3ccccc3)C2C1=O (stereo unspecified) )
Result: -0.179

* * *

Readings of z-score for the listed molecules
assay: osmotic lysis modulators in infected erythrocytes, primary screen, PSAC antagonist project, cell-based, P. falciparum Indochina, OD700, 3 h (AID 1156); conditions: higher = more signal, called active from +8 up or from −8 down
Activity calls are given as the source filed them.

[[record]]
molecule = "Cc1ccc(S[C@]2(C(=O)O)CC(=O)N(Cc3cc(C(F)(F)F)cc(C(F)(F)F)c3)[C@@H]2c2ccc(CO)cc2)cc1"
measure = "z-score"
recorded_result = "1.44 (inactive)"

[[record]]
molecule = "COCCOC(=O)N1C(=O)[C@@]2(c3cc(C#CC4=CCCCC4)ccc31)[C@H](c1ccc(OCCO)cc1)N1[C@H](c3ccccc3)[C@H](c3ccccc3)OC(=O)[C@H]1[C@@H]2C(=O)N1CCN(c2ncccn2)CC1"
measure = "z-score"
recorded_result = "-0.146 (inactive)"

[[record]]
molecule = "O=C1N(Cc2ccccc2)c2ccccc2[C@@H]2OC(c3ccc(OCCCO)cc3)=N[C@]12Cc1ccccc1"
measure = "z-score"
recorded_result = "4.66 (inactive)"

[[record]]
molecule = "O=C(NCC(F)(F)F)[C@@H]1c2ccccc2C(=O)N(Cc2ccccc2C(F)(F)F)[C@H]1c1ccc(CO)cc1"
measure = "z-score"
recorded_result = "0.239 (inactive)"

[[record]]
molecule = "CCOC(=O)C[C@H]1[C@H](OC(=O)c2ccc(C(=O)c3ccccc3)cc2)[C@@H](NC(=O)Cc2ccc(OC)cc2)c2cc(OCCCO)ccc2N1C(=O)c1ccccc1"
measure = "z-score"
recorded_result = "-0.937 (inactive)"


Now for another entry.
Q: Form field: reported z-score of CN1C(=O)C2C=CC(C(O)c3ccc(F)cc3)N(Nc3ccccc3)C2C1=O (stereo unspecified)
Result: 1.45 (inactive)

* * *

assay: basal MM1S mitochondrial membrane potential changes, profiling panel, cell-based, JC-1 fluorescence, 24 h, 100 nL compound (AID 1170); conditions: higher = more signal; also: test concentration not given here
// reported z-score for each item listed

[[record]]
structure_smiles = "CC(C)C[C@@H]1NC(=O)[C@@H]2C[C@H](C(=O)NCCCCCN)[C@H](c3ccc(O)cc3)N2C1=O"
measure = "z-score"
recorded_result = 0.698

[[record]]
structure_smiles = "C[C@@H]1ON(c2ccc(C(=O)OC(C)(C)C)cc2)[C@H](c2ccc(O)cc2)[C@H]1C(=O)N1C(=O)OC[C@H]1Cc1ccccc1"
measure = "z-score"
recorded_result = -2.81


# context switch: different molecule, same z-score
Q: Any idea what its z-score is? The molecule is COc1cccc(/C=C/C=O)c1
Result: -0.253
